pIC50: −log10 of the molar value.
Field pIC50: reported value for Tyrosine-protein kinase JAK2 (Homo sapiens, UniProt O60674); entries drawn from several documents.

// solved cases for pIC50 follow
[
  {
    "compound": "Cc1cc(Nc2ncc3ccn(Cc4cccnc4N(C)S(C)(=O)=O)c3n2)ccc1N1CCNCC1",
    "pIC50": "> 7.70"
  },
  {
    "compound": "COc1c(F)c(F)cc(C(=O)N2CCC(N3CC(CC#N)(n4cc(-c5ncnc6[nH]ccc56)cn4)C3)CC2)c1F",
    "pIC50": "7.30 to 8.00"
  },
  {
    "compound": "CN(c1ncnc2[nH]ccc12)N1CCC(C(=O)NCC#N)C1 (stereo not shown)",
    "pIC50": "7.00 to 8.00"
  }
]

// below: pIC50 requested for another compound
What reported pIC50 corresponds to N#Cc1cc(-c2ncnc(Nc3ccc(N4CCN(C5COC5)CC4)cc3)n2)ccc1OCC1CC1 on Tyrosine-protein kinase JAK2 (Homo sapiens, UniProt O60674)? 6.34

###

pIC50: −log10 of the molar value.
A compilation of pIC50 values for Tyrosine-protein kinase JAK2 (Homo sapiens, UniProt O60674) from the published literature.

[
  {
    "compound": "O=C(CN1CCC(O)CC1)Nc1cccc(-c2cnc3ccccc3n2)c1",
    "assay-readout": "pIC50",
    "result": "< 5.00"
  },
  {
    "compound": "CN1CCn2c(-c3cc4nccn4c(-c4cnn(C(CC#N)C5CC5)c4)n3)cnc2C1 (stereo not drawn)",
    "assay-readout": "pIC50",
    "result": "6.00 to 7.00"
  },
  {
    "compound": "CCc1cc(O)c(F)cc1-c1cc2[nH]nc(-c3nc(C)c(C)[nH]3)c2c(NCc2ccccc2N(C)S(C)(=O)=O)n1",
    "assay-readout": "pIC50",
    "result": 7.56
  },
  {
    "compound": "O=C1NCCCCOCc2cc(ccc2OCC2CCC2)Nc2nccc(n2)-c2ccc1cc2[N+](=O)[O-]",
    "assay-readout": "pIC50",
    "result": "5.00 to 6.00"
  }
]

Form field: pIC50 recorded for N#Cc1cc(-c2ncnc(Nc3ccc(N4CCN(C5COC5)CC4)cc3)n2)ccc1O[C@H]1C[C@@H]2C[C@H]1N(C(=O)CO)C2 with Tyrosine-protein kinase JAK2 (Homo sapiens, UniProt O60674) (enter value) 6.42

Another compound: CCCS(=O)(=O)N1CCC2(CCC(N(C)c3ncnc4c3CCN4)CC2)CC1 6.00 to 7.00

# iterate: Cn1cc(-c2cc3nccn3c(-c3cnn(C(CC4CC4)CC4CC4)c3)n2)cn1 7.00 to 8.00

###

From various publications: pIC50 for UniProtKB O60674.
pIC50: −log10 of the molar value.

Illustrative cases are given below, each with its answer.
[
  {
    "compound": "N#CCC(C1CC1)n1cc(-c2ccnc(Nc3cccc(-c4cnco4)c3)n2)cn1 (racemic)",
    "result": "> 7.00"
  },
  {
    "compound": "N#Cc1cc(-c2ncnc(Nc3ccc(C4CCN(C5COC5)CC4)cc3)n2)ccc1O[C@H]1CCN(C(=O)[C@@H](O)CO)C[C@H]1F",
    "result": 6.16
  },
  {
    "compound": "COc1ccc(OCC(O)CNc2cc[nH]c(=O)c2-c2nc3cc4c(cc3[nH]2)C(=O)N(C2CCN(C)CC2)C4=O)cc1 (stereo not shown)",
    "result": "4.82 to 5.30"
  },
  {
    "compound": "CN(C)S(=O)(=O)CCNC(=O)c1noc2c1CN(c1ncnc3[nH]ccc13)CC2",
    "result": "6.30 to 7.00"
  },
  {
    "compound": "Nc1cc2ccc1-c1ccnc(n1)Nc1ccc(OCC3CCOC3)c(c1)COCCCCNC2=O (stereo not shown)",
    "result": "6.00 to 7.00"
  },
  {
    "compound": "COc1ccccc1NC(=O)N1CCC(N2CC(CC#N)(n3ccc(-c4ncnc5[nH]ccc45)c3)C2)CC1",
    "result": "≥ 8.00"
  }
]

Now take the following compound into account.
// lookup pIC50 | system=UniProtKB O60674 | key= N#CCC1(n2cc(-c3ncnc4[nH]ccc34)cn2)CN(C2CCN(C(=O)c3cc(F)cc(C(F)(F)F)c3)CC2)C1 7.30 to 8.00

###

Multiple publications report IC50 for UniProt O60674; what follows is a combined list.

Worked examples follow.
[
  {
    "molecule": "Cc1cc(-c2ccnc(Nc3ccc(N4CCOCC4)cc3)n2)ccc1C(=O)NCC#N",
    "IC50": "< 100 nM"
  },
  {
    "molecule": "CCC(=O)c1cnc(Nc2cc(C(=O)NC)ccn2)cc1Nc1cccc(-c2ncn(C)n2)c1OC",
    "IC50": "≥ 500 nM"
  },
  {
    "molecule": "N#CCC1(n2cc(-c3ncnc4[nH]ccc34)cn2)CN(C2CCN(C(=O)C3(c4ccc(Cl)cc4)CC3)CC2)C1",
    "IC50": "10 to 50 nM"
  },
  {
    "molecule": "COc1cc(Nc2ncnc(-c3ccc(OC4CCOCC4)c(C#N)c3)n2)ccc1N1CCN(C)CC1",
    "IC50": "53 nM"
  },
  {
    "molecule": "N#CCC(C1CCCC1)n1cc(-c2ncnc3[nH]ccc23)c(Br)n1 (stereo not drawn)",
    "IC50": "< 20 nM"
  }
]

Proceeding to the next molecule to report its IC50.
Quick one: IC50 for CCc1cc(O)c(F)cc1-c1cc2[nH]nc(C(=O)NC)c2c(NCc2cc(F)ccc2N(C)S(C)(=O)=O)n1 ? 9.2 nM

###

# pIC50 against Tyrosine-protein kinase JAK2 (Homo sapiens, UniProt O60674), merged from multiple literature sources
pIC50: −log10 of the molar value.
assay-readout: pIC50

[
  {
    "compound": "CC1CCC(C(=O)NCC(F)(F)F)CN1Nc1c(C(N)=O)cnc2[nH]ccc12 (centres unmarked)",
    "pIC50": 7.39
  }
]

I. Cc1ccc(NC(=O)c2cccc(C(F)(F)F)c2)cc1N1CCc2nc(Nc3ccc(C(=O)N4CCN(C)CC4)cc3)ncc2C1
II. N#Cc1cc(-c2ncnc(Nc3ccc(N4CCN(C5COC5)CC4)cc3)n2)ccc1O[C@H]1CCN(C(=O)[C@@H](O)CO)C[C@H]1F
III. N#Cc1cc(-c2ncnc(Nc3ccc(N4CCN(C5COC5)CC4)cc3)n2)ccc1O[C@@H]1CN(C(=O)CO)CC1(F)F (single isomer, unassigned)
IV. Cc1ccc(NC(=O)CC(C)C(F)(F)F)cc1N1CCc2nc(Nc3ccc(N4CCN(C)CC4)cc3)ncc2C1 (centres unmarked)
V. C[C@@H](NC(=O)c1ccc(-c2ccnc(Nc3ccc(N4CCOCC4)cc3)n2)cc1)C(F)(F)F
Ascending sort, pIC50. Respond with the label ranking, as requested. II, III, IV, I, V

###

Reported IC50 against Tyrosine-protein kinase JAK2 (Homo sapiens, UniProt O60674), gathered from multiple publications, appears below.

[
  {
    "compound": "CCC(CC)n1cc(-c2nc(-c3cnn(C4CN(C(=O)[C@H](C)O)C4)c3)cn3nccc23)cn1",
    "IC50": "0.01 to 0.1 µM"
  },
  {
    "compound": "Nc1ncnc2c1c(-c1cccc(OC[C@@H]3CCCO3)c1F)cn2C1CC2(CNC(=O)O2)C1 (stereo partly shown)",
    "IC50": "> 10 µM"
  },
  {
    "compound": "CCN1CCC(N2Cc3cc4nc(-c5c(NC[C@@H](O)COc6ccc(C)cc6C)cc[nH]c5=O)[nH]c4cc3C2=O)CC1",
    "IC50": "< 0.5 µM"
  },
  {
    "compound": "Cc1ccc(NC(=O)c2cc(N3CCN(CCO)CC3)cc(C(F)(F)F)c2)cc1-c1ccc2c(c1)[nH]c1ncncc12",
    "IC50": "≤ 0.5 µM"
  },
  {
    "compound": "C=CCC1(n2cc(-c3nc(-c4cnn(C)c4)cc4nccn34)cn2)CN(S(=O)(=O)C(F)(F)F)C1",
    "IC50": "0.01 to 0.1 µM"
  },
  {
    "compound": "CC(C)(C)NS(=O)(=O)c1cccc(N2CCc3cnc(Nc4ccc(OCCN5CCOCC5)cc4)nc32)c1",
    "IC50": "0.001 µM"
  },
  {
    "compound": "N#Cc1cc(-c2ncnc(Nc3ccc(N4CCN(C5COC5)CC4)cc3)n2)ccc1OCCn1ccnc1",
    "IC50": "0.239 µM"
  },
  {
    "compound": "Cn1cnc(S(=O)(=O)N2CCC(N3CC(CC#N)(n4cc(-c5ncnc6[nH]ccc56)cn4)C3)CC2)c1",
    "IC50": "≤ 0.01 µM"
  },
  {
    "compound": "Cc1cnc(-c2cnc3[nH]ccc3c2N[C@@H]2CCCN(CCC#N)C2)o1",
    "IC50": "0.01 to 0.1 µM"
  },
  {
    "compound": "CC(C)N1CCCc2n[nH]c3ccnc1c23",
    "IC50": "3.1 µM"
  }
]

Next compound, please.
Recorded IC50 of Cc1cc2ccc1-c1nc(ncc1C)Nc1cccc(c1)COCCCCNC2=O , please. > 10 µM
